Molecular target: L-lactate dehydrogenase (Plasmodium falciparum (isolate CDC / Honduras)) (UniProt Q27743)
Sequence (Q27743 whole entry, looked up): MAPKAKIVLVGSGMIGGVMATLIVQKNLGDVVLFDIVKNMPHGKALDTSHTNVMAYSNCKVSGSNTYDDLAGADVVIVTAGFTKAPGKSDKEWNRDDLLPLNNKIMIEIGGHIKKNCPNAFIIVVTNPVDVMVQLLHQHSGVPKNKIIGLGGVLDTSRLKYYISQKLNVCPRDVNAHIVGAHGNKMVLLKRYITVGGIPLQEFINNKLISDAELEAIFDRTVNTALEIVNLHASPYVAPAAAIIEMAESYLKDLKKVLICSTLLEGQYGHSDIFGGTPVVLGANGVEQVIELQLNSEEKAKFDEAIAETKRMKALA
Assay: PfLDH activity inhibition – cell lysate, 3D7 strain, counter-screen for P. falciparum growth inhibition project (AID 2304);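 note: 0% = vehicle and 100% = reference inhibitor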
Conditions: P. falciparum 3D7 crude extract, LDH APAD/NBT absorbance; at 2 µM; hits give high values
inhibition: recorded values
Answer in %, number only, no unit symbol.

Problem: I would be grateful if you could share the reported inhibition for CC(C)(C)C(=O)N1CCN(c2ccc([N+](=O)[O-])c(NC3CC3)c2)CC1 .
Solution: 3

Problem: I would be grateful if you could share the reported inhibition for O=C(NCc1ccc(Cl)cc1)c1ccc(CN2CCCN(CC3CCCCC3)CC2)cc1 .
Solution: -3

Problem: I would be grateful if you could share the reported inhibition for Cn1cnc(CCNC(=O)c2cccc(-c3ccc(-c4nc5ccc(F)cc5[nH]4)cc3)c2)c1 .
Solution: 4

Problem: I would be grateful if you could share the reported inhibition for CN1CCN(CCCN(Cc2cccc(-c3cccc(CNC4CCCC4)c3)c2)C(=O)CCC2CCCC2)CC1 .
Solution: -3

Problem: I would be grateful if you could share the reported inhibition for c1cc(CNC2CCCC2)cc(-c2ccc(CNc3ccc4ncccc4c3)cc2)c1 .
Solution: -9
